assay-target: T1, FX activation peptide 12-mer TENPFDLLDFNQ (human)
T1 peptide: TENPFDLLDFNQ-biotin
method: peptide ELISA
Ends that are not written are not given here.
value-type: ELISA signal relative to background
// response body must contain only the number

Recorded ELISA signal relative to background, per entry:
# return recorded ELISA signal relative to background for input Nb 501A02 (VHH, monovalent control Nanobody; also called control Nanobody; not shown: C-terminal FLAG3 and HIS6 tag) VHH: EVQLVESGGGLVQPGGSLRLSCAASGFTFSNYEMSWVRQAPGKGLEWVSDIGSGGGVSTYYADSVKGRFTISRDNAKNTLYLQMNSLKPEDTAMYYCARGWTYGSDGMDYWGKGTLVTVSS 1.09

# return recorded ELISA signal relative to background for input Nb 729C08 (VHH, monovalent Nanobody; also called Nb 729008; not shown: C-terminal FLAG3 and HIS6 tag) VHH: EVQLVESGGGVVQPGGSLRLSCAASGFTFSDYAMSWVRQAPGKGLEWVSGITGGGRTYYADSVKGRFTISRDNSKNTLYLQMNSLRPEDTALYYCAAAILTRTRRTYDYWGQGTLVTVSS 3.14

New cases:
# return recorded ELISA signal relative to background for input Nb 702C12 (VHH, monovalent Nanobody; not shown: C-terminal FLAG3 and HIS6 tag) VHH: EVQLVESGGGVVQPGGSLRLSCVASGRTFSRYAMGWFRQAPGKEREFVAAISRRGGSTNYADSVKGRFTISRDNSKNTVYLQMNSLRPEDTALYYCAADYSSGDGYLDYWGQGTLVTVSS 4.84
